So I've got ΔTm readings for Cyclin-dependent kinase 2 (Homo sapiens, UniProt P24941), take a look.
Result Type: ΔTm (°C)

> print(dat)
                                    compound  result.type  numeric.value
 1  N#C/C(=C(/N)Sc1ccc(N)cc1)c1ccccc1C(F)(F)F          ΔTm            0.4
 2  CN(C)CC1CCn2c(c(C3=C(c4c[nH]c5ccccc45)C(=O)NC3=O)c3ccccc32)C1 (stereo unspecified)          ΔTm            2.5
 3  O=C1Nc2cc(Br)ccc2/C1=C1/Nc2ccccc2/C1=N\O          ΔTm            4.1
 4  C[S+]([O-])c1ccc(CSc2nc(-c3ccc(F)cc3)c(-c3ccncc3)[nH]2)cc1 (stereo unspecified)          ΔTm            0.5
 5  O=C1c2ccccc2-[n+]2ccc3c([nH]c4ccccc43)c21 [FASCAPLYSIN CHLORIDE]          ΔTm              0
 6         Oc1cc(O)cc(/C=C/c2ccc(O)c(O)c2)c1          ΔTm            1.2
 7  CN(C)S(=O)(=O)c1ccc2c(c1)/C(=C/c1cc3c([nH]1)CCCC3)C(=O)N2          ΔTm            2.3
 8          O=c1cc(N2CCOCC2)oc2c1ccc1ccccc12          ΔTm            0.5
 9          COc1cccc(-c2cc(=O)c3ccccc3o2)c1N          ΔTm            0.3
10  N#CCCc1ccc2c(c1)-c1[nH]c3ccc([N+](=O)[O-])cc3c1CC(=O)N2          ΔTm            6.6
11      O=c1c(-c2ccc(O)cc2)coc2cc(O)cc(O)c12          ΔTm            0.7
12  CC(C)c1cc(/C=C(\C#N)C(=O)NCCCc2ccccc2)cc(C(C)C)c1O          ΔTm            1.2
13  CCOC(=O)c1c(C)[nH]c(/C=C2\C(=O)Nc3ccccc32)c1C          ΔTm           -3.4
14  CCOc1cc(/C=C(\C#N)C(N)=O)cc(CSc2ccccc2)c1O          ΔTm            0.8
15         N=C(N)NCCNS(=O)(=O)c1cccc2cnccc12          ΔTm            0.3
16  O=c1c(O)c(-c2ccc(O)c(O)c2)oc2cc(O)cc(O)c12          ΔTm            5.3
17       CCOc1cc2ncnc(Nc3cccc(Br)c3)c2cc1OCC          ΔTm            0.4
18  CSc1nc(-c2ccc(F)cc2)c(-c2ccnc(NC(C)c3ccccc3)c2)[nH]1 (racemic)          ΔTm           -0.5
19               Cc1cc2ncc(-c3ccccc3)nc2cc1C          ΔTm            0.3
20         O=c1sn(Cc2ccccc2)c(=S)n1Cc1ccccc1          ΔTm            0.3
21  CCN(CC)CCNC(=O)c1c(C)[nH]c(/C=C2\C(=O)Nc3ccc(Cl)cc32)c1C          ΔTm            0.9
22  O=C1C(Cl)=C(N2C(=O)CCC2=O)C(=O)c2ccccc21          ΔTm           -1.1
23  Cc1ccc(NC(=O)c2cccc(N(C)C)c2)cc1NC(=O)c1ccc(O)cc1          ΔTm            0.3
24  O=C1NC(=O)C(c2c[nH]c3ccccc23)=C1c1c[nH]c2ccccc12          ΔTm            1.5
25  CC(C)(C)c1cc(C=C2C(=O)C=CC2=O)cc(C(C)(C)C)c1O          ΔTm            1.2
26  COc1ccc(CNC(=O)Nc2ncc([N+](=O)[O-])s2)cc1          ΔTm            0.8
27  O=C1Cc2c([nH]c3ccc([N+](=O)[O-])cc23)-c2ccccc2N1          ΔTm            4.4
28  Cc1[nH]c(/C=C2\C(=O)Nc3ccc(S(=O)(=O)N(C)c4cccc(Cl)c4)cc32)c(C)c1C(=O)N1CCN(C)CC1          ΔTm           -0.4
29                   Nc1n[nH]c2nc3ccccc3nc12          ΔTm            1.3
30  COc1ccc(CNc2nc(N(CCO)CCO)nc3c2ncn3C(C)C)cc1          ΔTm            1.6
31  CC(C)c1nn(-c2c(Cl)cccc2Cl)c2nc(Cc3ccc(OCCO)cc3)[nH]c(=O)c12          ΔTm           10.6
32      O=S(=O)(c1cccc2c(Cl)cccc12)N1CCCNCC1          ΔTm            0.8
33  Cc1nc2sccn2c(=O)c1CCN1CCC(=C(c2ccccc2)c2ccc(F)cc2)CC1          ΔTm            1.2
34  O=[N+]([O-])c1ccc(-c2nc(-c3ccc(F)cc3)c(-c3ccncc3)[nH]2)cc1          ΔTm            1.8
35  COc1cc2ncnc(Nc3ccc(NC(=O)c4ccccc4)cc3)c2cc1OC          ΔTm           -0.5
36  C[C@@H]1C[C@H]2O[C@@H]2/C=C\C=C\C(=O)Cc2c(Cl)c(O)cc(O)c2C(=O)O1          ΔTm            0.5
37      O=c1cc(-c2ccc(O)cc2)oc2cc(O)cc(O)c12          ΔTm            2.3
38          Cc1c2ccncc2c(C)c2c1[nH]c1ccccc12          ΔTm            1.6
39  O=c1c(-c2ccc(F)cc2)c(-c2ccncc2)[nH]n1-c1ccc(Cl)cc1          ΔTm            0.2
40  CC(=O)O/N=C1/C(=C2/C(=O)Nc3cc(Br)ccc32)Nc2ccccc21          ΔTm            3.2
41           CCN1/C(=C/C(C)=O)Sc2ccc(OC)cc21          ΔTm            0.1

###

Here's what we have: ΔTm numbers for Dual specificity protein kinase CLK1 (Homo sapiens).
Result Type: ΔTm

> print(dat)
                                    compound   result
 1   CC(C)(C)n1nc(-c2ccc(Cl)cc2)c2c(N)ncnc21   2.1 °C
 2  CC(C)(C)n1nc(-c2cccc3ccccc23)c2c(N)ncnc21   1.1 °C
 3  Cn1cc(C2=C(c3cn(CCCN)c4ccccc34)C(=O)NC2=O)c2ccccc21   8.2 °C
 4  CN(C)c1ccc(CC2C(=O)Nc3ccccc32)cc1 (configuration not stated)     2 °C
 5  NS(=O)(=O)c1ccc(Nc2nc(OCC3CCCCC3)c3nc[nH]c3n2)cc1   3.9 °C
 6  CN(C)CCCn1cc(C2=C(c3c[nH]c4ccccc34)C(=O)NC2=O)c2ccccc21 [GF-109203]   6.3 °C
 7  Cc1nc(N)sc1-c1ccnc(Nc2cccc([N+](=O)[O-])c2)n1     7 °C
 8                                   C=CNC#N   0.8 °C
 9  Nc1nccc(-c2c(-c3ccc(F)cc3)ncn2C2CCNCC2)n1   1.3 °C
10  O=C1c2ccccc2-[n+]2ccc3c([nH]c4ccccc43)c21 [FASCAPLYSIN CHLORIDE]  -1.9 °C
11  O=C1Cc2c([nH]c3ccc([N+](=O)[O-])cc23)-c2ccccc2N1   2.2 °C
12           O=C(O)c1cc(NCc2cc(O)ccc2O)ccc1O   0.1 °C
13  Nc1nc(Nc2ccc(S(N)(=O)=O)cc2)nn1C(=S)Nc1c(F)cccc1F  11.5 °C
14  Nc1n[nH]c2nnc(-c3c(-c4ccccc4)nn4ccccc34)cc12   0.7 °C
15          O=c1cc(N2CCOCC2)oc2c1ccc1ccccc12   0.8 °C
16  C[C@@H]1C[C@H]2O[C@@H]2/C=C\C=C\C(=O)Cc2c(Cl)c(O)cc(O)c2C(=O)O1 [RADICICOL]     0 °C
17      O=S(=O)(c1cccc2c(Cl)cccc12)N1CCCNCC1     2 °C
18  CC(C)N(CCO)c1nc(Nc2cccc(Cl)c2)c2ncn(C(C)C)c2n1   5.9 °C
19  C[S+]([O-])c1ccc(CSc2nc(-c3ccc(F)cc3)c(-c3ccncc3)[nH]2)cc1 (configuration not stated)  -0.5 °C
20                 O=C(O)/C=C/c1cc(CO)ccc1CO   0.2 °C
21  O=C1Nc2cc(Br)ccc2/C1=C1/Nc2ccccc2/C1=N\O     0 °C
22  Cn1cnc2c(NCc3ccccc3)nc(NCCO)nc21 [OLOMOUCINE]  -0.2 °C
23  Oc1ccc(-c2nc(-c3ccc(F)cc3)c(-c3ccncc3)[nH]2)cc1   0.8 °C
24  O=C1C(Cl)=C(N2C(=O)CCC2=O)C(=O)c2ccccc21  -1.1 °C
25  NC1=NC(=O)/C(=C2\CCNC(=O)c3[nH]c(Br)cc32)N1 [HYMENIALDISINE]   9.2 °C
26  NC(=O)c1ccc(-c2nc(-c3ccc4c(c3)OCCO4)c(-c3ccccn3)[nH]2)cc1  -0.4 °C
27          COc1cccc(-c2cc(=O)c3ccccc3o2)c1N   0.2 °C
28  NCCNc1ncc(C(N)=O)c(Nc2cccc(C(F)(F)F)c2)n1   2.2 °C
29  Cc1[nH]c(/C=C2\C(=O)Nc3ccc(S(=O)(=O)N(C)c4cccc(Cl)c4)cc32)c(C)c1C(=O)N1CCN(C)CC1   2.1 °C
30  CC(=O)O/N=C1/C(=C2/C(=O)Nc3cc(Br)ccc32)Nc2ccccc21 [6-BROMOINDIRUBIN-3'-ACETOXIME]  -0.3 °C
31  COc1ccc(CNc2nc(N(CCO)CCO)nc3c2ncn3C(C)C)cc1   2.4 °C
32    Nc1n[nH]c2nc3ccccc3nc12 [QUINOXALINE1]   1.6 °C
33  CCOC(=O)c1c(C)[nH]c(/C=C2\C(=O)Nc3ccccc32)c1C  -1.1 °C
34  CCCCc1c(-c2ccc(O)cc2)[nH]c2nccnc12 [ALOISINE A]   3.5 °C
35  CC(C)c1nn(-c2c(Cl)cccc2Cl)c2nc(Cc3ccc(OCCO)cc3)[nH]c(=O)c12   3.6 °C
36     O=c1cc(N2CCOCC2)oc2c(-c3ccccc3)cccc12   1.3 °C
37  COc1ccc2c(c[n+](C)c3c4cc5c(cc4ccc23)OCO5)c1OC [CHELERYTHRINE CHLORIDE]  -4.4 °C
38  CN(C)CC1CCn2c(c(C3=C(c4c[nH]c5ccccc45)C(=O)NC3=O)c3ccccc32)C1 (configuration not stated)     2 °C
39            O=C1c2ccccc2-c2n[nH]c3cccc1c23   4.7 °C
40         O=c1sn(Cc2ccccc2)c(=S)n1Cc1ccccc1   0.2 °C
41   Cc1cc(Nc2nc(-c3ccccc3)nc3ccccc23)n[nH]1   5.8 °C
42  COc1cc(/C=C/C(=O)CC(=O)/C=C/c2ccc(O)c(OC)c2)ccc1O [CURCUMIN]   7.9 °C
